Kindly supply the reported AUC values for the records listed here.
# test_details: Mice pharmacokinetic evaluation experiment
# Type: in vivo
# condition_description: male, ICR, mouse; PO 100 mg/kg, mice plasma
Answers are plain numbers, in ng·h/mL.

- compound: "C#Cc1c(F)ccc2cc(O)cc(-c3ncc4c(N5CC6CCC(C5)N6)nc(OC[C@@]56CCCN5C[C@H](F)C6)nc4c3F)c12 [MRTX1133, reference compound]"
  AUC [ng·h/mL]: 745

For reference, reported AUC for C#Cc1c(F)ccc2cc(O)cc(-c3ncc4c(N5C[C@H]6CC[C@@H](C5)N6)nc(OCC56CC(=C)CN5CC(=C)C6)nc4c3F)c12 stands at 2840

---

# Tested on: AsPC-1 cells (KRAS^G12D mutation)
# test_details: Cell proliferation inhibition assay (3D, CellTiter-Glo), AsPC-1
# Format: cell-based, human
# condition_description: Homo sapiens, ASPC1, 120 h, 3D cell model, 5 days
# Experimental: […] AsPC-1 is an endogenous human pancreatic cancer cell containing KRAS^G12D mutation, which is cultured in RPMI-1640 medium containing 10% FBS; AGS human gastric cancer cell line containing KRAS^G12D mutation, cultured in F-12K medium containing 10% FBS. […] Luminescence chemiluminescence value was read on a microplate reader, and the cell proliferation inhibition ratio was calculated, IR (%)=(RLU control-RLU compound)/(RLU control-RLU blank)×100%. […]
measurement_type: pIC50
Numbers only, as −log10 of the molar value.

Hi! Can you tell me pIC50 for each of these molecules?
1. C#Cc1cccc2cc(O)cc(-c3ncc4c(N5C[C@H]6C=C[C@@H](C5)N6)nc(OCC56CCCN5CC(F)(F)C6)nc4c3F)c12 (stereo partly drawn)
2. C#Cc1cccc2cc(O)cc(-c3ncc4c(N5C[C@H]6CC[C@@H](C5)N6)nc(OCC56CCCN5CC=C6CC)nc4c3F)c12 (stereo partly drawn)
3. C#Cc1cccc2cc(O)cc(-c3ncc4c(N5C[C@@H]6CC[C@@H](N6)[C@H]5C)nc(OCC56CC(C)CN5CC(C)C6)nc4c3F)c12 (stereo partly drawn)
4. C#Cc1cccc2cc(O)cc(-c3ncc4c(N5C[C@H]6CC[C@@H](C5)N6)nc(OCC56CCCN5CC(=C(F)F)C6)nc4c3F)c12 (stereo partly drawn)
5. C#Cc1cccc2cccc(-c3ncc4c(N5C[C@H]6CC[C@@H](C5)N6)nc(OCC56CC(=C)CN5CC(=C)C6)nc4c3F)c12
6. C#Cc1c(F)ccc2cc(O)cc(-c3ncc4c(N5C[C@H]6CC[C@@H](C5)N6)nc(OCC56CC(=C)CN5CC(=C)C6)nc4c3F)c12

[6.02, 6.26, 7.04, 8.16, 6.31, 8.34]

Hi! Can you tell me pIC50 for each of these molecules?
1. C=C1CN2CCCC2(COc2nc(N3C[C@H]4CC[C@@H](C3)N4)c3cnc(-c4cc(O)cc5cccc(F)c45)c(F)c3n2)C1 (stereo partly drawn)
2. C#Cc1cccc2cc(O)cc(-c3ncc4c(N5C[C@H]6CC[C@@H](C5)N6)nc(OCC56CCCN5CC(=C)C6)nc4c3F)c12 (stereo partly drawn)
3. C=C1CN2CCCC2(COc2nc(N3C[C@H]4CC[C@@H](C3)N4)c3cnc(-c4cc(O)cc5cccc(CC)c45)c(F)c3n2)C1 (stereo partly drawn)

1. 7.25
2. 7.24
3. 7.30

---

Kindly supply the reported IC50 values for the records listed here.
# system_tested: KRAS^wt (wild type) protein binding to RBD region fragment of RAF1 protein (Homo sapiens (Human), UniProt P01116)
# Sequence (P01116-2 other isoform, or with tags, fused parts or gaps): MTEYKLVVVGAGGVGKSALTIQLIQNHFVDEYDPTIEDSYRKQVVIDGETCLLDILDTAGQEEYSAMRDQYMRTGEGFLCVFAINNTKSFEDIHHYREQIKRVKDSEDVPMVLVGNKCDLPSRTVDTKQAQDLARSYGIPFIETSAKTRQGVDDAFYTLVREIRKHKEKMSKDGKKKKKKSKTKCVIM
One number for each entry, in nM.

Would you please look over these solved cases?
- compound: "C#Cc1cccc2cc(O)cc(-c3ncc4c(N5C[C@H]6CC[C@@H](C5)N6)nc(OCC56CC(=C)CN5CC(F)C6)nc4c3F)c12 (some centres unmarked)"
  IC50 / nM: 64.3
- compound: "C#Cc1c(F)ccc2cc(O)cc(-c3ccc4c(N5C[C@H]6CC[C@@H](C5)N6)nc(OCC56CCCN5CCC6)nc4c3F)c12"
  IC50 / nM: 261
- compound: "C#Cc1cccc2cc(O)cc(-c3ncc4c(N5C[C@H]6CC[C@@H](C5)N6)nc(OCC56CCN5CC(=C)C6)nc4c3F)c12 (some centres unmarked)"
  IC50 / nM: 67.8

Shifting focus to the compound that follows.
For reference, reported IC50 for C#Cc1c(F)ccc2cc(O)cc(-c3ncc4c(N5C[C@H]6CC[C@@H](C5)N6)nc(OC[C@]56CCCN5CC(=C)C6)nc4c3F)c12 (single isomer, unassigned) stands at 101

---

# Test system: AGS cells (KRAS^G12D mutation)
# test_details: Cell proliferation inhibition assay (3D, CellTiter-Glo), AGS
# Format: cell-based, human
# condition_description: Homo sapiens, AGS, 120 h, 3D cell model, 5 days
measurement_type: pIC50
One number for each entry, as −log10 of the molar value.

Would you please look over these solved cases?
- compound: "C#Cc1c(Cl)ccc2cc(O)cc(-c3ncc4c(N5C[C@H]6CC[C@@H](C5)N6)nc(OCC56CC(=C)CN5CC(=C)C6)nc4c3F)c12 [Example Z216]"
  system_tested: "AGS cells (KRAS^G12D mutation)"
  pIC50: 8.50
- compound: "C#Cc1cccc2cc(O)cc(-c3ncc4c(N5C[C@H]6CC[C@@H](C5)N6)nc(OCC56CCC7(CC7)N5CC(=C)C6)nc4c3F)c12 (stereo partly shown) [Example Z22]"
  system_tested: "AGS cells (KRAS^G12D mutation)"
  pIC50: 7.97
- compound: "C=C1CN2CCCC2(COc2nc(N3C[C@H]4CC[C@@H](C3)N4)c3cnc(-c4cc(O)cc5cccc(F)c45)c(F)c3n2)C1 (stereo partly shown) [Example Z24]"
  system_tested: "AGS cells (KRAS^G12D mutation)"
  pIC50: 8.48
- compound: "C#Cc1cccc2cccc(-c3ncc4c(N5C[C@H]6CC[C@@H](C5)N6)nc(OCC56CC(=C)CN5CC(=C)C6)nc4c3F)c12 [Example Z190]"
  system_tested: "AGS cells (KRAS^G12D mutation)"
  pIC50: 6.69
- compound: "C#Cc1cccc2cc(O)cc(-c3ncc4c(N5C[C@@H]6CC[C@@H](N6)[C@H]5C)nc(OCC56CC(C)CN5CC(C)C6)nc4c3F)c12 (stereo partly shown) [Example Z207]"
  system_tested: "AGS cells (KRAS^G12D mutation)"
  pIC50: 7.49

Hi! Can you tell me pIC50 for each of these compounds?
1. C#Cc1cccc2cc(N)c(F)c(-c3ncc4c(N5C[C@H]6CC[C@@H](C5)N6)nc(OCC56CC(=C)CN5CC(=C)C6)nc4c3F)c12 [Example Z213]
2. C#Cc1cccc2cc(O)cc(-c3ncc4c(N5C[C@H]6CC[C@@H](C5)N6)nc(OCC56CCN5CC(=C)C6)nc4c3F)c12 (stereo partly shown) [Example Z19]
3. C#Cc1cccc2cc(O)cc(-c3ncc4c(N5C[C@H]6CC[C@@H](C5)N6)nc(OCC56CCCN5CC(=C(F)F)C6)nc4c3F)c12 (stereo partly shown) [Example Z27]
4. C#Cc1cccc2cc(O)cc(-c3ncc4c(N5C[C@H]6CC[C@@H](C5)N6)nc(OCC56CC(=C)CN5CC(F)C6)nc4c3F)c12 (stereo partly shown) [Example Z17]
5. C#Cc1cccc2cc(O)cc(-c3ncc4c(N5C[C@H]6C=C[C@@H](C5)N6)nc(OCC56CCCN5CCC6)nc4c3F)c12 [Example Z4]
6. C=C1CN2CCCC2(COc2nc(N3C[C@H]4CC[C@@H](C3)N4)c3cnc(-c4cc(O)cc5cccc(CC)c45)c(F)c3n2)C1 (stereo partly shown) [Example Z11]
7. C#Cc1cccc2cc(O)cc(-c3ncc4c(N5C[C@H]6CC[C@@H](C5)N6)nc(OCC56CCCN5CCC6=C)nc4c3F)c12 (stereo partly shown) [Example Z25]
8. C#Cc1cccc2cccc(-c3ncc4c(N5C[C@H]6C=C[C@@H](C5)N6)nc(OCC56CCCN5CCC6)nc4c3F)c12 [Example Z6]

1. 7.24
2. 7.50
3. 8.51
4. 8.17
5. 6.44
6. 8.60
7. 7.60
8. 6.09

---

# test_details: Mice pharmacokinetic evaluation experiment
# Type: in vivo
# condition_description: male, ICR, mouse; PO 100 mg/kg, mice plasma
measurement_type: Cmax (ng/mL)
Answers are plain numbers, in ng/mL.

- molecule: "C#Cc1c(F)ccc2cc(O)cc(-c3ncc4c(N5C[C@H]6CC[C@@H](C5)N6)nc(OCC56CC(=C)CN5CC(=C)C6)nc4c3F)c12 [Example Z194]"
  measurement_type: "Cmax"
  value_measured: 560

Shifting focus to the molecule that follows.
For reference, reported Cmax for C#Cc1c(F)ccc2cc(O)cc(-c3ncc4c(N5CC6CCC(C5)N6)nc(OC[C@@]56CCCN5C[C@H](F)C6)nc4c3F)c12 [MRTX1133, reference compound] stands at 279
